- Species on record: Mus musculus
- MEASUREMENT_PROTOCOL: Inhibition of MNK in mouse 3T3L1 cells assessed as reduction of eIF4E phosphorylation at 3 uM after 2 hrs by Western blot analysis
- Assay type: cell-based
Activity calls are given as the source filed them. No cut-off for these calls is given here.
Possible outcomes: active, inactive

MOLECULE | ASSIGNED_LABEL
COc1cc(F)ccc1Nc1ncnc2sc(C(=O)NCCCN(C)C)c(C)c12 | inactive
COc1cc(F)ccc1Nc1ncnc2sc(C(=O)NCCc3c[nH]cn3)c(C)c12 | active
Cc1c(C(=O)N2CCCC2)sc2ncnc(Nc3ccc(F)cc3OC(C)C)c12 | active
Cc1c(C(=O)NC2CCCCC2)sc2ncnc(Nc3ccc(F)cc3OC(C)C)c12 | active
COc1cc(F)ccc1Nc1ncnc2sc(C(=O)N3CCOCC3)c(C)c12 | active
Cc1c(C(=O)OCCCO)sc2ncnc(Nc3ccc(F)cc3OC(C)C)c12 | active
COc1cc(F)ccc1Nc1ncnc2sc(C(=O)NCCCN3CCCC3)c(C)c12 | active
Cc1c(C(=O)NCCCN(C)C)sc2ncnc(Nc3ccc(F)cc3OC(C)CF)c12 (stereo not drawn) | active
COc1cc(F)ccc1Nc1ncnc2sc(C(=O)NC3CCCCC3)c(C)c12 | active
Cc1c(C(=O)NCCCN2CCCC2)sc2ncnc(Nc3ccc(F)cc3OC(C)C)c12 | active
Cc1c(C(=O)OCCc2ccccc2)sc2ncnc(Nc3ccc(F)cc3OC(C)C)c12 | active
COc1cc(F)ccc1Nc1ncnc2sc(C(=O)NCCCO)c(C)c12 | active
Cc1c(C(=O)NCCc2c[nH]cn2)sc2ncnc(Nc3ccc(F)cc3OC(C)C)c12 | active
Cc1c(C(=O)NCCCN(C)C)sc2ncnc(Nc3ccc(F)cc3OC(C)C)c12 | active
Cc1c(C(=O)NCC(C)(C)CN(C)C)sc2ncnc(Nc3ccc(F)cc3OC(C)C)c12 | active
Cc1c(C(=O)OCCO)sc2ncnc(Nc3ccc(F)cc3OC(C)C)c12 | active
COc1cc(F)ccc1Nc1ncnc2sc(C(=O)N3CCCCC3)c(C)c12 | active
COC(=O)c1sc2ncnc(Nc3ccc(F)cc3OC(C)C)c2c1C | inactive
Cc1c(C(=O)N2CCCCC2)sc2ncnc(Nc3ccc(F)cc3OC(C)C)c12 | active
COc1cc(F)ccc1Nc1ncnc2sc(C(=O)N3CCN(C)CC3)c(C)c12 | active
Cc1c(C(=O)NCCCN2CCOCC2)sc2ncnc(Nc3ccc(F)cc3OC(C)C)c12 | active
Cc1c(C(=O)NCCc2ccncc2)sc2ncnc(Nc3ccc(F)cc3OC(C)C)c12 | active
Cc1c(C(=O)N2CCN(C)CC2)sc2ncnc(Nc3ccc(F)cc3OC(C)C)c12 | active
